The measurements presented in this section are drawn from patent US20260317324A1.

biological target: BRAF V600E (Homo sapiens, UniProt P15056, V600E); construct: endogenous C-terminal HiBiT fusion tag on BRAF V600E allele; endogenous in cells; host or cells: A375 clone 1F10 (CRISPR-Cas9 knock-in of the HiBiT tag; parental A375 from ATCC); assay: BRAF HiBiT degradation assay, C-terminal HiBiT-tagged BRAF V600E A375 cells (clone 1F10), Nano-Glo HiBiT Lytic assay; format: cell-based; conditions: A-375; A375 (BRAF V600E); percentage protein degraded at maximal compound effect relative to DMSO
Sequence (P15056 whole entry V600E, the tested form may be a part): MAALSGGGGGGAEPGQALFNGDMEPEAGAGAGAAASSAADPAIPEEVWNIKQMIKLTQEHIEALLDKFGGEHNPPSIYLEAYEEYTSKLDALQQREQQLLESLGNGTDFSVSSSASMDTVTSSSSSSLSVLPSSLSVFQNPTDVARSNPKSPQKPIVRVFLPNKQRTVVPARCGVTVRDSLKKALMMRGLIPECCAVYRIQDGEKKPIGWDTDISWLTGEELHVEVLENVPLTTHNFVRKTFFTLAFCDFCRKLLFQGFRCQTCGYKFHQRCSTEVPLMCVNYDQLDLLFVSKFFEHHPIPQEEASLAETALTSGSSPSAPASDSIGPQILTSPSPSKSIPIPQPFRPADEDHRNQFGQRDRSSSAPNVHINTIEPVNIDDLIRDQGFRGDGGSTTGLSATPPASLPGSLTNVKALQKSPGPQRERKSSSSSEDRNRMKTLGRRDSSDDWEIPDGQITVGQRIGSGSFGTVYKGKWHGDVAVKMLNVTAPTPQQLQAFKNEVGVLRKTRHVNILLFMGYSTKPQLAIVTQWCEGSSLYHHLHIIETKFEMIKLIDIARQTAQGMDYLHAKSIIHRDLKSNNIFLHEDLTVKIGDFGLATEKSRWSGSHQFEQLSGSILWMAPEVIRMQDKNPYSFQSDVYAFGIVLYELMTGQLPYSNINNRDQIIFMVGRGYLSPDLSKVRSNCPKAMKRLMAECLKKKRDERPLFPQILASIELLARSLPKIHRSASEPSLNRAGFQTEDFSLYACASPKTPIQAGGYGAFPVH
Kindly state Dmax for each of the entries shown.

Lab note: measured Dmax of CCCS(=O)(=O)Nc1cccc(-c2nc(C(C)(C)C)sc2-c2ccnc(Nc3cnn(CC4CCN(CC5CCN(c6ccc(C(=O)NC7CCC(=O)NC7=O)nc6)CC5)CC4)c3)n2)c1F (racemic) [Compound 82] was 30 to 70%

Lab note: measured Dmax of CCCS(=O)(=O)Nc1cccc(-c2nc(C3CCN(C(=O)C4CCN(C(=O)C5CCN(c6ccc(C7CCC(=O)NC7=O)cc6)CC5)CC4)CC3)sc2-c2ccnc(N)n2)c1F (racemic) [Compound 216] was > 70%

Lab note: measured Dmax of CCCS(=O)(=O)Nc1cccc(-c2nc(C3CCN(C(=O)[C@H]4CC[C@H](CN5CCc6cc(C7CCC(=O)NC7=O)ccc6C5)CC4)CC3)sc2-c2ccnc(N)n2)c1F (mixture of isomers) [Compound 222] was 30 to 70%

Lab note: measured Dmax of CCCS(=O)(=O)Nc1cccc(-c2nc(C(C)(C)C)sc2-c2ccnc(NC3CC4(C3)CN(C(=O)C3CN(C5CCN(c6ccc7c(c6)C(=O)N(C6CCC(=O)NC6=O)C7=O)CC5)C3)C4)n2)c1F (racemic) [Compound 154] was > 70%

Lab note: measured Dmax of CCCS(=O)(=O)Nc1cccc(-c2nc(C(C)(C)C)sc2-c2ccnc(Nc3cnn(C4CCN(C(=O)[C@H]5CC[C@H](Oc6ccc(C7CCC(=O)NC7=O)cc6)CC5)CC4)c3)n2)c1F (mixture of isomers) [Compound 110] was 30 to 70%

----------
Kindly state DC50 for each of the entries shown.
biological target: BRAF G466V (Homo sapiens, UniProt P15056, G466V); construct: Horizon Discovery (HCT-116 BRAF−/− cells); host or cells: HCT-116 BRAF−/− cells, clone 8, lentiviral transduction; assay: BRAF HiBiT degradation assay, C-terminal HiBiT-tagged BRAF G466V overexpressed in HCT-116 BRAF−/− cells (clone 8), Nano-Glo HiBiT Lytic assay; type: cell-based; conditions: BRAF G466V; DC50 at 50%: fitted conc. at Y=50
Sequence (P15056 whole entry G466V): as the sequence (P15056 whole entry V600E, the tested form may be a part) above, with G466V, E600V counted along it

Lab note: measured DC50 of `CCN(C)S(=O)(=O)Nc1cccc(-c2nc(C)sc2-c2ccnc(Nc3ccc(N4CCN(CC5CCN(c6ccc([C@H]7CCC(=O)NC7=O)cn6)CC5)CC4)cn3)n2)c1F` was 10 to 50 nM

Lab note: measured DC50 of `CCCS(=O)(=O)Nc1cccc(-c2nc(C(C)(C)C)sc2-c2ccnc(Nc3ccc(N4CCN(CC5CCN(c6ccc([C@H]7CCC(=O)NC7=O)cc6)CC5)CC4)c(F)c3)n2)c1F` was 10 to 50 nM

Lab note: measured DC50 of `CCCS(=O)(=O)Nc1cccc(-c2nc(-c3ccc(N4CCN(CC5CCN(c6ccc([C@H]7CCC(=O)NC7=O)cc6)CC5)CC4)cc3)sc2-c2ccnc(N)n2)c1F` was 10 to 50 nM

Lab note: measured DC50 of CCCS(=O)(=O)Nc1cccc(-c2nc(-c3ccc(N4CCN(CC5CCN(c6ccc(C7CCC(=O)NC7=O)cn6)CC5)CC4)cc3)sc2-c2ccnc(N)n2)c1F (racemic) was 10 to 50 nM

Lab note: measured DC50 of CCCS(=O)(=O)Nc1cccc(-c2nc(C(C)(C)C)sc2-c2ccnc(Nc3cnn(CC4CCN(C(=O)[C@H]5CC[C@H](Oc6ccc(C7CCC(=O)NC7=O)cn6)CC5)CC4)c3)n2)c1F (mixture of isomers) was > 500 nM

----------
molecular target: BRAF D594G (Homo sapiens, UniProt P15056, D594G); construct: Horizon Discovery (HCT-116 BRAF−/− cells); host or cells: HCT-116 BRAF−/− cells, clone 63, lentiviral transduction; assay: BRAF HiBiT degradation assay, C-terminal HiBiT-tagged BRAF D594G overexpressed in HCT-116 BRAF−/− cells (clone 63), Nano-Glo HiBiT Lytic assay; format: cell-based; settings: HCT-116; BRAF D594G; percentage protein degraded at maximal compound effect relative to DMSO
Sequence (P15056 whole entry D594G): as the sequence (P15056 whole entry V600E, the tested form may be a part) above, with D594G, E600V counted along it
quantity_measured: Dmax

Lab note: measured Dmax of CCCS(=O)(=O)Nc1cccc(-c2nc(C(C)(C)C)sc2-c2ccnc(Nc3ccc(N4CCN(C(=O)C5CCN(c6ccc(C7CCC(=O)NC7=O)cn6)CC5)CC4)c(F)c3)n2)c1F (racemic) was 30 to 70%

Lab note: measured Dmax of `CCCS(=O)(=O)Nc1cccc(-c2nc(-c3ccc(C4CCN(CC5CCN(c6ccc([C@@H]7CCC(=O)NC7=O)cc6)CC5)CC4)cc3)sc2-c2ccnc(N)n2)c1F` was 30 to 70%

Lab note: measured Dmax of `CCN(C)S(=O)(=O)Nc1cccc(-c2nc(C)sc2-c2ccnc(Nc3ccc(N4CCN(CC5CCN(c6ccc([C@H]7CCC(=O)NC7=O)cc6)CC5)CC4)cn3)n2)c1F` was 30 to 70%

Lab note: measured Dmax of CCCS(=O)(=O)Nc1cccc(-c2nc(C(C)(C)C)sc2-c2ccnc(Nc3cccc(C4CCN(CC5CCN(c6ccc7c(=O)n(C8CCC(=O)NC8=O)ccc7c6)CC5)CC4)c3)n2)c1F (racemic) was < 30%

Lab note: measured Dmax of CCCS(=O)(=O)Nc1cccc(-c2nc(C3CCN(C(=O)C4(C)CCN(C(=O)C5CCN(c6ccc(C7CCC(=O)NC7=O)cc6)CC5)CC4)CC3)sc2-c2ccnc(NC(C)C)n2)c1F (racemic) was 30 to 70%

----------
Kindly state Dmax for each of the entries shown.
target: BRAF D594G (Homo sapiens, UniProt P15056, D594G); construct: Horizon Discovery (HCT-116 BRAF−/− cells); host or cells: HCT-116 BRAF−/− cells, clone 63, lentiviral transduction; assay: BRAF HiBiT degradation assay, C-terminal HiBiT-tagged BRAF D594G overexpressed in HCT-116 BRAF−/− cells (clone 63), Nano-Glo HiBiT Lytic assay; format: cell-based; conditions: HCT-116; BRAF D594G; percentage protein degraded at maximal compound effect relative to DMSO

Lab note: measured Dmax of CCCS(=O)(=O)Nc1cccc(-c2nc(C(C)(C)C)sc2-c2ccnc(Nc3ccc(C4CCN(CC5CCN(c6ccc(C7CCC(=O)NC7=O)cc6)CC5)CC4)cc3)n2)c1F (racemic) [Compound 167] was 30 to 70%

Lab note: measured Dmax of CCCS(=O)(=O)Nc1cccc(-c2nc(C(C)(C)C)sc2-c2ccnc(Nc3ccc(N4CCN(C(=O)CC5CCN(c6ccc(C7CCC(=O)NC7=O)cn6)CC5)CC4)c(F)c3)n2)c1F (racemic) [Compound 48] was 30 to 70%

Lab note: measured Dmax of CCCS(=O)(=O)Nc1cccc(-c2nc(-c3ccc(C4CCN(C(=O)CC5CCN(c6ccc(C7CCC(=O)NC7=O)cn6)CC5)CC4)cc3)sc2-c2ccnc(N)n2)c1F (racemic) [Compound 207] was 30 to 70%

----------
molecular target: BRAF V600E (Homo sapiens, UniProt P15056, V600E); construct: endogenous C-terminal HiBiT fusion tag on BRAF V600E allele; endogenous in cells; host or cells: A375 clone 1F10 (CRISPR-Cas9 knock-in of the HiBiT tag; parental A375 from ATCC); experiment: BRAF HiBiT degradation assay, C-terminal HiBiT-tagged BRAF V600E A375 cells (clone 1F10), Nano-Glo HiBiT Lytic assay; format: cell-based; settings: A375 (BRAF V600E); DC50 at 50%: fitted conc. at Y=50
quantity_measured: DC50

Lab note: measured DC50 of CCCS(=O)(=O)Nc1cccc(-c2nc(C(C)(C)C)sc2-c2ccnc(NC3CCN(C4CCN(CC5CCN(c6ccc(C7CCC(=O)NC7=O)cn6)CC5)CC4)CC3)n2)c1F (racemic) [Compound 136] was 50 to 500 nM

Lab note: measured DC50 of CCCS(=O)(=O)Nc1cccc(-c2nc(C(C)(C)C)sc2-c2ccnc(Nc3cccc(OC4CCN(C(=O)[C@H]5CC[C@H](Oc6ccc(C7CCC(=O)NC7=O)cn6)CC5)CC4)c3)n2)c1F (mixture of isomers) [Compound 97] was 10 to 50 nM

Lab note: measured DC50 of CCCS(=O)(=O)Nc1cccc(-c2nc(C3CCN(C(=O)C4(C)CCN(C(=O)C5CCN(c6ccc(C7CCC(=O)NC7=O)cc6)CC5)CC4)CC3)sc2-c2ccncn2)c1F (racemic) [Compound 178] was < 10 nM

Lab note: measured DC50 of CCCS(=O)(=O)Nc1cccc(-c2nc(C(C)(C)C3CCN(C(=O)CN4CCC5(CC4)CN(c4ccc6c(c4)C(=O)N(C4CCC(=O)NC4=O)C6=O)C5)CC3)sc2-c2ccnc(N)n2)c1F (racemic) [Compound 240] was > 500 nM

Lab note: measured DC50 of CCCS(=O)(=O)Nc1cccc(-c2nc(C(C)(C)C)sc2-c2ccnc(NC3CC4(C3)CN(C(=O)CCCCCc3ccc5c(c3)C(=O)N(C3CCC(=O)NC3=O)C5)C4)n2)c1F (racemic) [Compound 150] was 50 to 500 nM
